protocolDetails: Viability qHTS for inhibitors of the SERCaMP assay screened against the NCATS CANVASS Library (AID 1347400); also: nearly all actives have a fitted effect of over 70% in size
runConditions: SH-SY5Y SERCaMP cells viability, CellTiter-Glo, 48 h; series mostly up to 92.2 µM
Description: Natural products and their derivatives continue to be wellsprings of nascent therapeutic potential. […] To address this issue, the Canvass library of natural products was assembled (https://tripod.nih.gov/canvass), in collaboration with academic and industry researchers, for quantitative high-throughput screening (qHTS) across a diverse set of cell-based and biochemical assays. […]
Results filed as inconclusive are left out. Calls of active or inactive are those of the source. Calls follow the shape of the dose curve; as a rule, active = well fitted cell-killing curve with a large enough effect; inconclusive = small, poorly fitted or top-dose-only effect; inactive = flat fitted curve, though single readings scatter.
Outcome field: choose from active, inactive

molecule	assignedLabel
COc1c(O)cc(O)c2c(=O)cc(-c3ccccc3)oc12	inactive
C=C(Cl)[C@](Cl)(CBr)CC[C@@H](Br)C(C)(C)Cl	inactive
COC(=O)[C@@]12Oc3cccc(O)c3C(O)=C1C(=O)C[C@H](C)[C@H]2O	inactive
CCC(=O)CCCCC[C@@H]1NC(=O)[C@H]2CCCCN2C(=O)[C@H](C(C)C)NC(=O)[C@H](Cc2cn(OC)c3ccccc23)NC1=O	active
COc1cc(C2C3=C(Cc4cc5c(cc42)OCO5)C(=O)OC3)cc(OC)c1OC (stereo unspecified)	active

So what was the verdict on CCCc1c2c([nH]c(=O)c1C)C(=O)c1[nH]c(=O)c(C)c(CCC)c1C2=O in this test?
inactive

So what was the verdict on CC(C)C[C@@H]1c2c(O)c(C=O)c(O)c(C=O)c2O[C@]2(C)C=C[C@@H](C(C)C)C[C@H]12 in this test?
inactive

So what was the verdict on CCC(=O)N[C@@H](C[C@H](C)C(Cl)(Cl)Cl)C(=O)N1C(=O)C=C(OC)[C@@H]1CC(C)C in this test?
inactive

So what was the verdict on O=c1cc(-c2ccc(O)c(O)c2)oc2cc(O[C@@H]3O[C@H](CO)[C@@H](O)[C@H](O)[C@H]3O)cc(O)c12 in this test?
inactive

So what was the verdict on COc1cc2c(c(O)c1O)C(=O)c1c(coc1C)C2=O in this test?
active

So what was the verdict on C=C(C)CC[C@H](Cc1c(O)cc(O)c2c1O[C@H](c1ccc(O)cc1)CC2=O)C(=C)C in this test?
inactive

So what was the verdict on COc1cc2ccc(=O)oc2c(O)c1O[C@@H]1O[C@H](CO)[C@@H](O)[C@H](O)[C@H]1O in this test?
inactive

So what was the verdict on CC[C@H](O)CCCCC[C@@H]1NC(=O)[C@H]2CCCCN2C(=O)[C@H]([C@H](C)CC)NC(=O)[C@H](Cc2cn(OC)c3ccccc23)NC1=O in this test?
inactive

So what was the verdict on COc1ccc([C@@H]2c3cc4c(cc3C[C@H](C)C2C)OCO4)cc1OC (stereo partly specified) in this test?
active

So what was the verdict on CCC(C)=C1OC(=O)[C@H](C)[C@H](O)[C@H](Cc2cccnc2)NC(=O)C(NC(=O)c2ncccc2O)C(C)OC1=O (stereo partly specified) in this test?
inactive

So what was the verdict on C=C1[C@@]2(C)CC3C4(C)CCC(O)C(C)(C)C4CCC3(C)[C@]1(C(=O)OC)C(=O)C(C)(O)C2=O (stereo partly specified) in this test?
inactive

So what was the verdict on C/C=C(/CO)C(=O)O[C@@H]1[C@H](O)[C@@H](C(=O)OC)O[C@@H]2C[C@H]3OC(n4cnc5c(N)ncnc54)[C@H](OC)[C@H]3O[C@@]12O (stereo partly specified) in this test?
inactive
